- test.parameters: in n-pentanol, 303.15 K
attribute.measured: solubility (mole fraction)
Give bare numbers.

Data point: C[C@@H]1O[C@@H](OC[C@H]2O[C@@H](Oc3c(-c4ccc(OCCO)c(OCCO)c4)oc4cc(OCCO)cc(O)c4c3=O)[C@H](O)[C@@H](O)[C@@H]2O)[C@H](O)[C@H](O)[C@H]1O ; solubility (mole fraction) = 0.000132

====

- test.parameters: in acetone, 298.15 K
attribute.measured: solubility (mole fraction)
Numbers only.

Lab book: solubility (mole fraction) of C[C@@H]1O[C@@H](OC[C@H]2O[C@@H](Oc3c(-c4ccc(OCCO)c(OCCO)c4)oc4cc(OCCO)cc(O)c4c3=O)[C@H](O)[C@@H](O)[C@@H]2O)[C@H](O)[C@H](O)[C@H]1O noted as 4.2e-05
